Measured shrunken log2 fold change accompanies every entry in the list below.
- Tested on: Escherichia coli TOP10;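 further: peptides expressed intracellularly from a pBAD plasmid library in pooled LB shake-flask culture, induced with 0.3% L-arabinose, DNA abundance read by NGS, three biological replicates, DESeq2 with apeglm shrinkage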
- Assay remarks: shrunken log2 fold change of peptide-encoding DNA abundance (4.5 h post-induction vs induction); higher = less antimicrobial activity (less host growth inhibition)
- Cond: time post-induction: 4.5 h; library: site-saturation at positions 5, 18, 19, 20
Answer as a number with no unit attached.

# annotated cases, reported shrunken log2 fold change shown
RRIRTRPPRLPRPRPRPYTCPRP -0.0764
RRIRTRPPRLPRPRPRPPNKPRP -0.275
RRIRLRPPRLPRPRPRPCAAPRP 0.236
RRIRCRPPRLPRPRPRPQKPPRP 0.0368
RRIRDRPPRLPRPRPRPFEVPRP -0.0211

Return reported shrunken log2 fold change. Input sequence: RRIRQRPPRLPRPRPRPDQAPRP
0.0424

Return reported shrunken log2 fold change. Input sequence: RRIRARPPRLPRPRPRPDAFPRP
0.879

Data origin, for the record: the supplement of paper PMC9112550
